B1: RSAD1 (parent)
chain: YCNFNKYIPRRLEEAAMQKCLVTE

# Variants of: B1
# PROCEDURE TEXT: protein stability index of a GFP-peptide fusion (GPS, HEK-293T) (PSI 1-6); higher = more stable;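 further: lentivirally expressed fusions sorted by FACS into six bins by GFP to DsRed ratio, PSI derived from sequencing read proportions per bin multiplied by bin number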
# RUN CONDITIONS: c terminus: a fixed tail appended
PARAMETER: protein stability index
Give bare numbers.

# MUTATION ID, protein stability index
rows = [
    ("C2S", 1.84),
]

Quick one: give me protein stability index for each item below, same order please.
1. E24V
2. P9Y
3. L12K

1.9
2.48
2.42

List the reported protein stability index of each variant below.
1. T23Q
2. F4W
3. E24H
4. K6D
5. L21V
6. Y7V
7. N3G
8. K6H

1. 3.64
2. 2.56
3. 2.08
4. 2.9
5. 2.01
6. 3.01
7. 2.94
8. 3.4

Below is a list of variants. For each, state its recorded protein stability index.
1. L12D
2. E13R
3. M17K
4. N5Y
5. L21F
6. R10M

2.19
2.19
2.85
2.75
2.97
2.53

For each of the variants below, note its protein stability index.
1. E14G
2. N5K

[3, 2.28]

Okay, here is my list. What is protein stability index for each of these?
1. K6L
2. C20M

1. 2.58
2. 2.27
